Please consider the recorded Ki for Muscarinic acetylcholine receptor M2 (Homo sapiens) in what follows.
Quick note: unit goes after the number.

Task: I have this compound here, "CN1[C@@H]2CC[C@H]1C[C@@H](CC(O)(c1ccccc1)c1ccccc1)C2" , and I need its recorded Ki.
Output: 6.31 nM

Task: Here is the next compound: "CN1[C@@H]2CC[C@H]1C[C@@H](CC(C#N)(c1ccccc1)c1ccccc1)C2"
Output: 0.501 nM

Task: Same lookup for "CN1[C@@H]2CC[C@H]1C[C@@H](CC(CO)(c1ccccc1)c1ccccc1)C2" , please.
Output: 12.6 nM

Task: Check "C[N+]1(C)[C@@H]2CC[C@H]1C[C@@H](CC(O)(c1ccccc1)c1ccccc1)C2.[Br-]" too.
Output: 3.98 nM

Task: Then "C[N+]1(C)[C@@H]2CC[C@H]1C[C@@H](CC(CO)(c1ccccc1)c1ccccc1)C2.[Br-]" ?
Output: 3.98 nM
